Values were extracted from patent US5691319A.

# Test system: mouse fibrosarcoma M5076
# experiment: Anti-tumor activity against M5076 fibrosarcoma (sc implanted, BDF1 mice)
# Format: in vivo
# run_parameters: optimal dose/4, oral, days 1, 4, 7, 10, 13 and 16; tumor size on twentieth day
Assign growth inhibition (%) optimal dose/4 to each entry below.
One number for each entry, in %.

| structure_as_smiles | growth inhibition (%) optimal dose/4 |
| --- | --- |
| CCCCCCCCCCCCCC(=O)Nc1ccn([C@@H]2O[C@H](CO)[C@@H](O)[C@@H]2C#N)c(=O)n1 | 79.1 |

I would be grateful if you could provide growth inhibition (%) optimal dose/4 for each of the following entries.
1. CCCCCCCCCCCCCCCCCC(=O)Nc1ccn([C@@H]2O[C@H](CO)[C@@H](O)[C@@H]2C#N)c(=O)n1
2. CCCCCCCCCC(=O)Nc1ccn([C@@H]2O[C@H](CO)[C@@H](O)[C@@H]2C#N)c(=O)n1

Result:
1: 88.9; 2: 70.4

Hey, can you go through the list below and give me growth inhibition (%) optimal dose/4 for every item?
1. CCCCCCCCCCCCCCCC(=O)Nc1ccn([C@@H]2O[C@H](CO)[C@@H](O)[C@@H]2C#N)c(=O)n1
2. CCCCCC(=O)Nc1ccn([C@@H]2O[C@H](CO)[C@@H](O)[C@@H]2C#N)c(=O)n1

Result:
1: 90.2; 2: 61.1

---

# System: mouse fibrosarcoma M5076
# experiment: Anti-tumor activity against M5076 fibrosarcoma (sc implanted, BDF1 mice)
# Format: in vivo
# run_parameters: optimal dose, oral, days 1, 4, 7, 10, 13 and 16; tumor size on twentieth day
recorded_endpoint: growth inhibition (%) optimal dose
Answers are plain numbers, in %.

Take a look at these entries with their results.
| structure_as_smiles | tested_on | unit_tag | growth inhibition (%) optimal dose |
| --- | --- | --- | --- |
| CCCCCCCCCCCCCCCCCCCC(=O)Nc1ccn([C@@H]2O[C@H](CO)[C@@H](O)[C@@H]2C#N)c(=O)n1 | mouse fibrosarcoma M5076 | % | 96.5 |
| COCCOCOCCCCCCCCCCCCCCCC(=O)Nc1ccn([C@@H]2O[C@H](CO)[C@@H](O)[C@@H]2C#N)c(=O)n1 | mouse fibrosarcoma M5076 | % | 99.2 |
| COCOCCCCCCCCCCCCCCCC(=O)Nc1ccn([C@@H]2O[C@H](CO)[C@@H](O)[C@@H]2C#N)c(=O)n1 | mouse fibrosarcoma M5076 | % | 96.0 |
| N#CCCCCCCCCCCC(=O)Nc1ccn([C@@H]2O[C@H](CO)[C@@H](O)[C@@H]2C#N)c(=O)n1 | mouse fibrosarcoma M5076 | % | 99.0 |

Dear reader, for each entry below, please note its growth inhibition (%) optimal dose.
1. CCCCCCCCCCCCCCCCCC(=O)Nc1ccn([C@@H]2O[C@H](CO)[C@@H](O)[C@@H]2C#N)c(=O)n1
2. CCCCCCCCCCCCCCCC(=O)Nc1ccn([C@@H]2O[C@H](CO)[C@@H](O)[C@@H]2C#N)c(=O)n1
3. CCCCCCCCCC(=O)Nc1ccn([C@@H]2O[C@H](CO)[C@@H](O)[C@@H]2C#N)c(=O)n1
4. CCCCCC(=O)Nc1ccn([C@@H]2O[C@H](CO)[C@@H](O)[C@@H]2C#N)c(=O)n1
5. CCCCCCCCCCCCCC(=O)Nc1ccn([C@@H]2O[C@H](CO)[C@@H](O)[C@@H]2C#N)c(=O)n1

Result:
[98.1, 99.2, 93.0, 97.7, 97.3]

---

# Test system: mouse fibrosarcoma M5076
# experiment: Anti-tumor activity against M5076 fibrosarcoma (sc implanted, BDF1 mice)
# Format: in vivo
# run_parameters: optimal dose/4, oral, days 1, 4, 7, 10, 13 and 16; tumor size on twentieth day
recorded_endpoint: growth inhibition (%) optimal dose/4
Answers are plain numbers, in %.

Please review the following examples before continuing.
| compound | growth inhibition (%) optimal dose/4 |
| --- | --- |
| COCOCCCCCCCCCCCCCCCC(=O)Nc1ccn([C@@H]2O[C@H](CO)[C@@H](O)[C@@H]2C#N)c(=O)n1 [Compound 1-34] | 87.2 |
| COCCOCOCCCCCCCCCCCCCCCC(=O)Nc1ccn([C@@H]2O[C@H](CO)[C@@H](O)[C@@H]2C#N)c(=O)n1 [Compound 1-41] | 76.2 |
| CCCCCCCCCCCCCCCCCCCC(=O)Nc1ccn([C@@H]2O[C@H](CO)[C@@H](O)[C@@H]2C#N)c(=O)n1 [Compound 1-15] | 88.7 |

Please turn your attention to the following entry.
Query: Given N#CCCCCCCCCCCC(=O)Nc1ccn([C@@H]2O[C@H](CO)[C@@H](O)[C@@H]2C#N)c(=O)n1 [Compound 1-62] , state its recorded growth inhibition (%) optimal dose/4.
Result: 83.3
